- test.system: Sec7 domain of cytohesin-2 (Homo sapiens, UniProt Q99418)
- Construct: The Sec7 domain of human cytohesin-2 (61-252aa) was expressed in BL21/DE3 cells; GST (N, cleaved yes)
- Sequence (Q99418 61-252): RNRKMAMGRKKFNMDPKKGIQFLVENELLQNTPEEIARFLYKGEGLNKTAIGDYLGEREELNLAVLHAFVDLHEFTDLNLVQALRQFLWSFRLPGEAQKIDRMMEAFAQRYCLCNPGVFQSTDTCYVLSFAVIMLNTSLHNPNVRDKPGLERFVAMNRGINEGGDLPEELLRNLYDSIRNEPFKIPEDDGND
- procedure.text: Tryptophan fluorescence-based GTPγS binding (GEF-activity) assay of Sec7 domain
- condition.set: purified Sec7 domain; truncated [Δ17]Arf1 as substrate; read-out: IC50, inhibition of enzymatic GEF-activity of Sec7 with [Δ17]Arf1
metric.name: IC50 (µM)

- query.smiles: "COc1nc(-c2ccc3c(c2)OCO3)n(-c2ccc(NC(=O)CSc3ccccc3)cc2)n1"
  metric.name: "IC50"
  test.result: 6.9
